From: the supplement of paper PMC11246515

Assign total protein half-life in vivo to each entry below.
assay: total protein half-life in vivo (active degradation + dilution); higher = more stable protein; details: E. coli NCM3722 delta-hslV; growth: N-lim chemostat; doubling time 6 h
Reply numerically in h, unit not repeated.

Give the measured total protein half-life in vivo for MDQAGIIRDLLIWLEGHLDQPLSLDNVAAKAGYSKWHLQRMFKDVTGHAIGAYIRARRLSKSAVALRLTARPILDIALQYRFDSQQTFTRAFKKQFAQTPALYRRSPEWSAFGIRPPLRLGEFTMPEHKFVTLEDTPLIGVTQSYSCSLEQISDFRHEMRYQFWHDFLGNAPTIPPVLYGLNETRPSQDKDDEQEVFYTTALAQDQADGYVLTGHPVMLQGGEYVMFTYEGLGTGVQEFILTVYGTCMPMLNLTRRKGQDIERYYPAEDAKAGDRPINLRCELLIPIRR [P0ACI0]
5.7

Consider the sequence MTVKQTVEITNKLGMHARPAMKLFELMQGFDAEVLLRNDEGTEAEANSVIALLMLDSAKGRQIEVEATGPQEEEALAAVIALFNSGFDED [P0A9N0] and give its recorded total protein half-life in vivo.
2.41

Please supply the value of reported total protein half-life in vivo for the item MRYSKLTMLIPCALLLSACTTVTPAYKDNGTRSGPCVEGGPDNVAQQFYDYRILHRSNDITALRPYLSDKLATLLSDASRDNNHRELLTNDPFSSRTTLPDSAHVASASTIPNRDARNIPLRVDLKQGDQGWQDEVLMIQEGQCWVIDDVRYLGGSVHATAGTLRQSIENR
6.12

Retrieve total protein half-life in vivo measured for MKRQKRDRLERAHQRGYQAGIAGRSKEMCPYQTLNQRSQWLGGWREAMADRVVMA [P0AFW2] and print it.
0.382

Could you please provide reported total protein half-life in vivo for MIREAQRSELPAILELWLESTTWGHPFIKANYWRDCIPLVRDAYLANAQNWVWEEDGKLLGFVSIMEGRFLAAMFVAPKAVRRGIGKALMQYVQQRHPHLMLEVYQKNQPAINFYQAQGFHIVDCAWQDETQLPTWIMSWPVVQTL ? Thanks!
2.72

Given the sequence MAYFLDFDERALKEWRKLGSTVREQLKKKLVEVLESPRIEANKLRGMPDCYKIKLRSSGYRLVYQVIDEKVVVFVISVGKRERSEVYSEAVKRIL [P0C077] , write its reported total protein half-life in vivo.
2.54

Answer with the recorded total protein half-life in vivo of MSSRVLTPDVVGIDALVHDHQTVLAKAEGGVVAVFANNAPAFYAVTPARLAELLALEEKLARPGSDVALDDQLYQEPQAAPVAVPMGKFAMYPDWQPDADFIRLAALWGVALREPVTTEELASFIAYWQAEGKVFHHVQWQQKLARSLQIGRASNGGLPKRDVNTVSEPDSQIPPGFRG [P0A8J2] only.
1.78

For the sequence MEFFKKTALAALVMGFSGAALALPNITILATGGTIAGGGDSATKSNYTVGKVGVENLVNAVPQLKDIANVKGEQVVNIGSQDMNDNVWLTLAKKINTDCDKTDGFVITHGTDTMEETAYFLDLTVKCDKPVVMVGAMRPSTSMSADGPFNLYNAVVTAADKASANRGVLVVMNDTVLDGRDVTKTNTTDVATFKSVNYGPLGYIHNGKIDYQRTPARKHTSDTPFDVSKLNELPKVGIVYNYANASDLPAKALVDAGYDGIVSAGVGNGNLYKSVFDTLATAAKTGTAVVRSSRVPTGATTQDAEVDDAKYGFVASGTLNPQKARVLLQLALTQTKDPQQIQQIFNQY , report total protein half-life in vivo.
6.41
